Listed next: entries and their corresponding Individual related material.
Experiment: Hygroscopicity evaluation
Format: physicochemical
Settings: relative humidity 53%, 2 W; in %
Reply: number alone, nothing else.

Some entries whose results are on file:
{"compound": "C[C@@H]1CN(C(=O)CC#N)CC=C1c1cc(NC(=O)C2CC2)nc2[nH]ccc12 [Example 1]", "Individual related material": 0.12}
{"compound": "C[C@@H]1CN(C(=O)CC#N)CC=C1c1cc(NC(=O)C2CC2)nc2[nH]ccc12 [Example 2]", "Individual related material": 0.12}
{"compound": "C[C@@H]1CN(C(=O)CC#N)CC=C1c1cc(NC(=O)C2CC2)nc2[nH]ccc12 [Example 4]", "Individual related material": 0.15}

Using known records, supply Individual related material for C[C@@H]1CN(C(=O)CC#N)CC=C1c1cc(NC(=O)C2CC2)nc2[nH]ccc12 [Example 3]
0.08

---

Listed next: entries and their corresponding Water.
Experiment: Hygroscopicity evaluation
Assay type: physicochemical
Conditions: relative humidity 53%, 4 W
Write it as a number; the unit % goes unstated.

Some entries whose results are on file:
{"molecule": "C[C@@H]1CN(C(=O)CC#N)CC=C1c1cc(NC(=O)C2CC2)nc2[nH]ccc12 [Example 1]", "Water (%)": 5.38}
{"molecule": "C[C@@H]1CN(C(=O)CC#N)CC=C1c1cc(NC(=O)C2CC2)nc2[nH]ccc12 [Example 4]", "Water (%)": 0.65}
{"molecule": "C[C@@H]1CN(C(=O)CC#N)CC=C1c1cc(NC(=O)C2CC2)nc2[nH]ccc12 [Example 2]", "Water (%)": 3.96}

Using known records, supply Water for C[C@@H]1CN(C(=O)CC#N)CC=C1c1cc(NC(=O)C2CC2)nc2[nH]ccc12 [Example 3]
0.66

---

Listed next: entries and their corresponding Water.
Assay: Hygroscopicity evaluation
Assay type: physicochemical
Settings: relative humidity 93%, 2 W
Source text: Samples were placed in a glass desiccator in which relative humidity was adjusted to 33%, 53%, 75%, and 93%, and then stored for two and four weeks to be evaluated.
Write it as a number; the unit % goes unstated.

Some entries whose results are on file:
{"compound": "C[C@@H]1CN(C(=O)CC#N)CC=C1c1cc(NC(=O)C2CC2)nc2[nH]ccc12 [Example 2]", "Water / %": 3.71}
{"compound": "C[C@@H]1CN(C(=O)CC#N)CC=C1c1cc(NC(=O)C2CC2)nc2[nH]ccc12 [Example 1]", "Water / %": 5.37}
{"compound": "C[C@@H]1CN(C(=O)CC#N)CC=C1c1cc(NC(=O)C2CC2)nc2[nH]ccc12 [Example 4]", "Water / %": 2.03}

Continue with the compound presented below.
Using known records, supply Water for C[C@@H]1CN(C(=O)CC#N)CC=C1c1cc(NC(=O)C2CC2)nc2[nH]ccc12 [Example 3]
1.17

---

Assay: Photostability evaluation
Assay type: physicochemical
Conditions: Solid, UV + Vis
// class 0 strictly below 2% in Total related material; class 1 otherwise

Consider the following illustrative entries.
{"molecule": "C[C@@H]1CN(C(=O)CC#N)CC=C1c1cc(NC(=O)C2CC2)nc2[nH]ccc12 [Example 2]", "qualitative-label": "class 0"}
{"molecule": "C[C@@H]1CN(C(=O)CC#N)CC=C1c1cc(NC(=O)C2CC2)nc2[nH]ccc12 [Example 3]", "qualitative-label": "class 0"}
{"molecule": "C[C@@H]1CN(C(=O)CC#N)CC=C1c1cc(NC(=O)C2CC2)nc2[nH]ccc12 [Example 1]", "qualitative-label": "class 1"}

# evaluate next
Say whether C[C@@H]1CN(C(=O)CC#N)CC=C1c1cc(NC(=O)C2CC2)nc2[nH]ccc12 [Example 4] shows Total related material of 2% or more.
class 0
